growth for assorted compounds
- Tested on: SF-295 CNS
- METHOD_DESCRIPTION: NCI-60 one-dose screen, 48 h (100 = growth as untreated, 0 = no growth, -100 = all killed)
- REPORTED_CONDITIONS: 10 µM unless noted
About 83,000 compounds went through this panel and 20% of them were active in at least one assay; those are over-represented in the sample as a whole. The source made the active and inactive calls. Rule for the calls: active = growth percent below 10; inactive = the rest.

{"COMPOUND": "CC1(C)C2=C(C(=O)N1Cc1ccccc1)C(c1ccco1)N(C(=O)C1CCC1)CCN2 (stereo not given)", "growth": "108% (inactive)"}
{"COMPOUND": "[2H]C([2H])([2H])Oc1ccc(/C=C/C(=O)/C=C(O)/C=C/c2ccc(OC([2H])([2H])[2H])c(OC([2H])([2H])[2H])c2)cc1OC([2H])([2H])[2H]", "growth": "39.5% (inactive)"}
{"COMPOUND": "CCN1CCN(c2nc(NNC(=O)c3ccc(OC)cc3)nc(N3CCN(C(c4ccccc4)c4ccccc4)CC3)n2)CC1", "growth": "71.3% (inactive)"}
{"COMPOUND": "CC1(C)CC(=O)C2=C(C1)OC(C(=O)c1ccccc1)C2c1cccc(Oc2ccccc2)c1 (stereo not given)", "growth": "32.6% (inactive)"}
{"COMPOUND": "Cn1ncc(CC(=O)O)c1-n1nnc2cc(Cl)ccc2c1=O", "growth": "91.7% (inactive)"}
{"COMPOUND": "CC1=C(C(=O)OCc2ccccc2)C(c2ccc3c(c2)OCO3)n2c(nc3ccccc32)N1 (stereo not given)", "growth": "20.4% (inactive)"}
{"COMPOUND": "CCOC(=O)C#Cc1c(CC(=O)OCC)nnn1[C@H]1O[C@@H](CO)[C@@H]2OC(C)(C)O[C@@H]21", "growth": "97.4% (inactive)"}
{"COMPOUND": "CC/C(=C(/c1ccc(Cl)cc1)c1ccc(OCCCN(C)C)cc1)c1ccc(OC)cc1", "growth": "88.5% (inactive)"}

The reported value for "C=C(C)Cn1c(SCC(=O)c2cccs2)nc2sc3c(c2c1=O)CCCC3" in terms of growth is 42.2% (inactive)

The reported value for "CCCNNC(=O)c1ccc(CNC(=O)/C=C/c2ccccc2)cc1" in terms of growth is 33.3% [2.5 µM] (inactive)

###

- Tested on: BT-549 breast
- METHOD_DESCRIPTION: NCI-60 one-dose screen, 48 h
- REPORTED_CONDITIONS: 10 µM unless noted
- Procedure: Growth inhibition of the BT-549 human tumor cell line is measured as a screen for anti-cancer activity. Cells are grown in 96 well plates and exposed to the test compound for 48 hours. Compounds are tested at a single concentration, which is 10^-5 M for most compounds. The reported endpoint is percent growth (GI% or GIPRCNT), where numbers from 0 - 100% represent growth inhibition, and numbers from -100% - 0 represent cell death. For example, a value of 40 represents 60% growth inhibition. […]
The panel holds about 83,000 compounds, 20% with a hit somewhere; the sample as a whole holds those more often. Active and inactive are the calls of the source. How the source made its calls: active means growth percent below 10; inactive means the rest.
Please state which outcome applies, choosing from active, inactive

# example entries with known answers
{"COMPOUND": "CCN=c1sc2c(n1NC(=O)c1cc3ccc1CCc1ccc(cc1)CC3)C(=O)c1ccccc1C2=O", "LABEL_CLASS": "active"}
{"COMPOUND": "CCN1CCN(CCOc2ccc(CNc3ccc4nc(CCC5CCCCC5)[nH]c4c3)cc2)CC1", "LABEL_CLASS": "inactive"}
{"COMPOUND": "CC(C)c1nc(N(C)S(C)(=O)=O)nc(-c2ccc(F)cc2)c1/C=C/C(=O)C[C@@H](O)CC(=O)O", "LABEL_CLASS": "inactive"}
{"COMPOUND": "COc1cc(/C=C/C(=O)c2ccc(-n3cc(CN4CCN(c5cc6c(cc5F)c(=O)c(C(=O)O)cn6C5CC5)CC4)nn3)cc2)cc(OC)c1OC", "LABEL_CLASS": "inactive"}
{"COMPOUND": "Cc1ccc(C23CCC(=O)N2CCc2cncn23)cc1 (stereo not drawn)", "LABEL_CLASS": "inactive"}

Query: recorded result category for C=CCOC(=O)C1=C(C)N(CC)C(=O)N(CC)C1c1c(Cl)n(C)c2ccccc12 (stereo not drawn) in this test
inactive

Query: recorded result category for "C=C1C(=O)O[C@H]2[C@H]1CC/C(COC(=O)NCc1ccc(Cn3c(=O)sn(CCCC)c3=O)cc1)=C\CC[C@@]1(C)O[C@@H]21" in this test
inactive

Query: recorded result category for "CCOc1ccc(-c2cc(C3(S(=O)(=O)c4ccc(C)cc4)CC=CC3)on2)cc1" in this test
inactive

###

- System: UACC-62 melanoma
- METHOD_DESCRIPTION: NCI-60 one-dose screen, 48 h
- REPORTED_CONDITIONS: 10 µM unless noted
- Procedure: Growth inhibition of the UACC-62 human tumor cell line is measured as a screen for anti-cancer activity. Cells are grown in 96 well plates and exposed to the test compound for 48 hours. Compounds are tested at a single concentration, which is 10^-5 M for most compounds. The reported endpoint is percent growth (GI% or GIPRCNT), where numbers from 0 - 100% represent growth inhibition, and numbers from -100% - 0 represent cell death. For example, a value of 40 represents 60% growth inhibition. […]
About 83,000 compounds went through this panel and 20% of them were active in at least one assay; those are over-represented in the sample as a whole. Active and inactive are the calls of the source. Rule for the calls: active = growth percent below 10; inactive = the rest.
Please state which outcome applies, choosing from active, inactive

# example entries with known answers
{"MOLECULE": "CCOC(=O)c1c(N)sc2cc(O)ccc12", "LABEL_CLASS": "inactive"}
{"MOLECULE": "COC(=O)[C@H]1Cc2c([nH]c3ccccc23)[C@H](c2ccc3c(c2)OCO3)N1", "LABEL_CLASS": "inactive"}
{"MOLECULE": "CCN1CCN(C(=O)[C@]23CC[C@@H](C)[C@H](C)[C@@H]2C2=CC[C@@H]4[C@@]5(C)C/C(=C/c6ccncc6)C(=O)C(C)(C)[C@@H]5CC[C@@]4(C)[C@]2(C)CC3)CC1", "LABEL_CLASS": "inactive"}
{"MOLECULE": "C#CCOC(=O)C(N)CSSCC(N)C(=O)O (centres undefined)", "LABEL_CLASS": "inactive"}
{"MOLECULE": "C#CCOc1ccc(C2=NN(CCCC)C3N=C(Cl)c4ncn(CCCC)c4N23)cc1OCC#C (centres undefined)", "LABEL_CLASS": "inactive"}

Query: recorded result category for "COc1ccc(-c2csc(NC(=O)CSc3nc(C)cc(=O)[nH]3)n2)cc1" in this test
inactive

Query: recorded result category for CN1C(=O)N(C)C2C1NN=c1s/c(=C\c3ccc(F)cc3)c(=O)n12 (centres undefined) in this test
inactive

Query: recorded result category for "Cc1ccc(Nc2cc(N)nc(N)n2)cc1" in this test
inactive

Query: recorded result category for "CS(=O)(=O)Nc1cc(-c2ccc3ncnc(Nc4cccc(Cl)c4)c3c2)cnc1Cl" in this test
active

Query: recorded result category for "O=C(/C=C\c1ccc(O)c(O)c1)c1ccccc1O" in this test
inactive

Query: recorded result category for "C/C(=C(\c1ccc(OCCCN(C)C)cc1)c1ccc(OC(=O)Cc2ccccc2)cc1)c1ccc(Cl)cc1" in this test
inactive

Query: recorded result category for "CC(=O)c1ccc(Nc2nccc(-c3ccc(Cl)cc3)n2)cc1" in this test
inactive

Query: recorded result category for "c1ccc2c(-c3cnn4cc(-c5ccc(N6CCNCC6)cc5)cnc34)ccnc2c1" in this test
active

Query: recorded result category for "CCOC(=O)c1c(NC(=S)Nc2ccc([N+](=O)[O-])cc2)sc2c1CCCCC2" in this test
inactive

Query: recorded result category for "CC(C)(C)CC(C)(C)Nc1c(-c2c(O)c3ccccc3oc2=O)nc2sccn12" in this test
inactive

Query: recorded result category for "COc1ccc(-c2nc(SCCC(C)C)nc(N/N=C(/C)c3ccc(N)cc3)c2C#N)cc1" in this test
inactive

Query: recorded result category for "O=C(Nc1ccccc1C(F)(F)F)C1=NCCCCN1" in this test
inactive

Query: recorded result category for "Nc1cc(-c2ccc(Cl)cc2)nn1-c1nc(-c2ccc(Br)cc2)cs1" in this test
inactive

Query: recorded result category for "COc1cccc2cc(N(C)c3nc(C)nc4c3CCC4)ccc12" in this test
inactive

Query: recorded result category for "COc1cc(C)cc(-c2c(-c3cc(N4CC(O)C4)nc(-c4cccnc4)n3)cnn2C)c1" in this test
inactive

Query: recorded result category for "O=C(Nc1ncc(Cc2cc(C(F)(F)F)ccc2Cl)s1)C(=S)N1CCOCC1" in this test
inactive

Query: recorded result category for "COC(=O)c1cc(-c2cc(OC)c(OC)c(OC)c2)[nH]c1N/N=C/c1c(Cl)cccc1Cl" in this test
inactive

Query: recorded result category for "COc1ccc(CNc2ccc3nc(CCC4CCCCC4)[nH]c3c2)cc1" in this test
inactive

Query: recorded result category for "O=C(Nc1ncc(Cc2ccc(Cl)cc2)s1)c1ccc2c(c1)OCCO2" in this test
inactive

Query: recorded result category for "CCc1ccc(Cc2cnc(NC(=O)c3cc(C)oc3C)s2)cc1" in this test
inactive
